Molecular target: hNAMPT protein (Homo sapiens (Human), UniProt P43490)
Sequence (P43490 whole entry): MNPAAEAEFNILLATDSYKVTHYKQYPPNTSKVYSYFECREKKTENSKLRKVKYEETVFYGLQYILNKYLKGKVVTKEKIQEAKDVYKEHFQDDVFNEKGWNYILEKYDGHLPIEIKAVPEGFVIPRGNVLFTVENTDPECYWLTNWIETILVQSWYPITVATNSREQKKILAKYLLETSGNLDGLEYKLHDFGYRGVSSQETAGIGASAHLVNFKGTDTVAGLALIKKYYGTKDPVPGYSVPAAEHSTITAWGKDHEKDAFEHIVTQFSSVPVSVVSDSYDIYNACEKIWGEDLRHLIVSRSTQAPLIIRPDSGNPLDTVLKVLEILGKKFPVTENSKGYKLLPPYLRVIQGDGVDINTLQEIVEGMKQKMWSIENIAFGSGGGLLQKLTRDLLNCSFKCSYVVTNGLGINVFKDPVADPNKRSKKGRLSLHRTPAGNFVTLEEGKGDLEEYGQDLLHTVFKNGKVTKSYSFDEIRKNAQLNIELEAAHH
Test: NAMPT enzyme assay (TR-FRET/HTRF, BodiPY ligand, anti 6His-Tb)
Assay type: binding
Conditions: compound concentration 1 μM; read-out: Percent Inhibition
Please provide measured inhibition at 1 µM for the entries that follow.
Only the number, expressed in %, is required.

Fill in the blank: the reported inhibition at 1 µM of N#Cc1ccc(-c2nc3cc(C(=O)NCCCc4ncc[nH]4)ccc3nc2-c2ccc(F)cc2)s1 is ____.
78

Look up inhibition at 1 µM for this molecule: CC(C)(C)OC(=O)N1CCN(C2CCN(c3nc4ccc(C(=O)NCCCn5ccnc5)cc4nc3-c3ccccc3)CC2)CC1
102

Need inhibition at 1 µM, item O=C(c1ccc2nc(-c3ccc(F)cc3)c(-c3ccc(F)cc3)nc2c1)N1CCC(c2ccncc2)C1 (stereo not shown)
41

Quick one: inhibition at 1 µM for O=C(NCCCc1ncc[nH]1)c1ccc2nc(OCC3CCCCO3)c(-c3ccc(F)cc3)nc2c1 (stereo not shown) ?
99

inhibition at 1 µM lookup needed for NC(=O)c1ccc(-c2nc3ccc(C(=O)NCCCn4ccnc4)cc3nc2-c2ccccc2)cc1 , thanks.
74

Sample O=C(NCc1ccccn1)c1ccc2nc(-c3ccccc3)c(-c3ccccc3)nc2c1 — what was its inhibition at 1 µM?
29

====

Kindly supply the reported pIC50 values for the records listed here.
Biological target: hNAMPT protein (Homo sapiens (Human))
Assay: NAMPT enzyme assay (TR-FRET/HTRF, BodiPY ligand, anti 6His-Tb)
Assay type: binding
Conditions: NAMPT IC50 range class; read-out: IC50
pIC50: −log10 of the molar value.

Name the reported pIC50 value associated with the compound O=C(c1ccc2nc(-c3ccc(F)cc3)c(-c3ccc(F)cc3)nc2c1)N1CC(c2ccccn2)C1 [Compound I-110]
6.00 to 6.30

So what's the measured pIC50 for this one? COc1cc(-c2nc3cc(C(=O)NCc4ccc5nccn5c4)ccc3nc2-c2ccc(F)cc2)c(F)cn1 [Compound I-333]
6.30 to 7.00

Returns the measured pIC50 for the input compound. Input: O=C(NCCCc1ncc[nH]1)c1ccc2nc(-n3ccnn3)c(-c3ccc(F)cc3)nc2c1 [Compound I-374]
6.30 to 7.00

Recorded pIC50 for Cc1ccc(Cl)c(-c2nc3cc(C(=O)NCCCc4ncc[nH]4)ccc3nc2-c2ccc(F)cc2)c1 [Compound I-365] , please?
> 7.00

If you can, please state the reported pIC50 value of O=C(NCCn1cncn1)c1ccc2nc(-c3ccc(F)cc3)c(-c3ccc(F)cc3)nc2c1 [Compound I-237] .
5.00 to 5.70

Data request, read-out pIC50, for O=C(NCCCn1ccnc1)c1ccc2nc(-c3ccccc3)c(-c3cccc(Cl)c3)nc2c1 [Compound I-224]
6.30 to 7.00

Recorded pIC50 of O=C(NCCCc1ncc[nH]1)c1ccc2nc(-n3nccn3)c(-c3ccc(F)cc3)nc2c1 [Compound I-330] , please.
6.30 to 7.00

====

Exercise: state measured inhibition at 1 µM for each of the compounds provided.
Target: UniProt P43490
Assay: NAMPT enzyme assay (TR-FRET/HTRF, BodiPY ligand, anti 6His-Tb)
Format: binding
Settings: compound concentration 1 μM; read-out: Percent Inhibition
Give just the number in %; leave the unit off.

Item: COc1cccc(-c2nc3ccc(C(=O)NCCCn4ccnc4)cc3nc2-c2cccc(OC)c2)c1 Test system: UniProt P43490 Read-out: inhibition at 1 µM Value: ?
103

// lookup inhibition at 1 µM | system=UniProt P43490 | key= Cn1ccnc1CCNC(=O)c1ccc2nc(-c3ccc(F)cc3)c(-c3ccc(F)cc3)nc2c1
79

Any idea what inhibition at 1 µM came out for CN1CCN(c2nc3ccc(C(=O)NCCCn4ccnc4)cc3nc2-c2ccccc2)CC1 on UniProt P43490?
60

Quick check: inhibition at 1 µM on UniProt P43490, item O=C(NCCc1cccnc1)c1ccc2nc(-c3ccco3)c(-c3ccco3)nc2c1 ?
22

# get_value(readout= inhibition at 1 µM, system= UniProt P43490) for NS(=O)(=O)c1cccc(-c2nc3ccc(C(=O)NCCCn4ccnc4)cc3nc2-c2ccccc2)c1
68

Given the entry O=C(c1ccc2nc(-c3ccc(F)cc3)c(-c3ccc(F)cc3)nc2c1)N1CCc2[nH]nc(O)c2C1 , what inhibition at 1 µM was observed with UniProt P43490?
7

What value of inhibition at 1 µM on UniProt P43490 does O=C(NCCCn1ccnc1)c1ccc2nc(N3CCC(N4CCNC4=O)CC3)c(-c3ccccc3)nc2c1 have?
72

Hello, I am looking for reported inhibition at 1 µM with UniProt P43490 for O=C(NCCCn1ccnc1)c1ccc2nc(N3CCCCC3)c(-c3ccccc3)nc2c1 . Could you help?
89

Which inhibition at 1 µM is reported with UniProt P43490 for this entry: O=C(c1ccc2nc(-c3ccc(F)cc3)c(-c3ccc(F)cc3)nc2c1)N1CCC(c2ccccn2)C1 (stereo not drawn) ?
17

For the record CC(=O)N1CCN(c2nc3ccc(C(=O)NCCCn4ccnc4)cc3nc2-c2ccccc2)CC1 , what value of inhibition at 1 µM is listed for UniProt P43490?
81

Test system UniProt P43490; read-out inhibition at 1 µM; what value for O=C(NCCCc1ncc[nH]1)c1ccc2nc(-c3ccc(F)cc3)c(-c3ccc4c(c3)OCCO4)nc2c1 ?
63

// map O=C(NCCCc1ncc[nH]1)c1ccc2nc(O[C@@H]3CCOC3)c(-c3ccc(Cl)cc3)nc2c1 to recorded inhibition at 1 µM (system: UniProt P43490)
99

Item COc1ccc(Cl)c(-c2nc3cc(C(=O)NCCCc4ncc[nH]4)ccc3nc2-c2ccc(F)cc2)c1 with UniProt P43490 - inhibition at 1 µM?
97

Hi! What's the reported inhibition at 1 µM for O=C(NCCCn1ccnc1)c1ccc2nc(-c3ccccc3)c(-c3cccnc3)nc2c1 on UniProt P43490?
46

Form field: inhibition at 1 µM recorded for O=C(NCCCc1ncc[nH]1)c1ccc2nc(N3CCOCC3)c(-c3ccc(F)cc3)nc2c1 with UniProt P43490 (enter value)
97
